Where these numbers come from: PubChem BioAssay

PROTOCOL DESCRIPTION: yeast AGP1-GFP level changes, GLN3 branch – cell-based, multiplex flow cytometry, S. cerevisiae, primary screen (AID 1887);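 further: AGP1-GFP fusion strain of S. cerevisiae within a five-strain barcoded multiplex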
ASSAY SETUP: 3 h, at 10 µM, active compounds read high
Records with an inconclusive call do not appear.
Consider the following compounds and their measured GFP response, % of DMSO readings.
Give just the numeric value; % need not be written.

Use these answered entries as a reference point.
# COMPOUND, ENDPOINT LABEL, UNIT NAME, OBSERVED VALUE
measured = [
    ("Cc1ccc(OCCCCn2ccnc2C)c(C)c1", "GFP response, % of DMSO", "%", 110),
    ("Cn1nnnc1SCC1=C(C(=O)O)N2C(=O)[C@@H](NC(=O)[C@H](O)c3ccccc3)[C@H]2SC1", "GFP response, % of DMSO", "%", 103),
    ("O=C(c1cccnc1)N1N=C(C2CC2)CC1(O)C(F)(F)F (stereo not given)", "GFP response, % of DMSO", "%", 104),
    ("S=C(NCCOCCOCCNC(=S)Nc1ccccc1)Nc1ccccc1", "GFP response, % of DMSO", "%", 97.4),
    ("CCCC(=O)Nc1ncnc2c1ncn2[C@@H]1O[C@@H]2COP(=O)(O)O[C@H]2[C@H]1OC(=O)CCC", "GFP response, % of DMSO", "%", 94.7),
    ("Cc1cc(/C=N/O)c(C)n1-c1ccc(Br)cc1", "GFP response, % of DMSO", "%", 91.1),
    ("O=C(c1cc2cc(Br)ccc2o1)N1CCCC1", "GFP response, % of DMSO", "%", 99.4),
    ("COc1ccc(C(=O)N2c3cc4c(cc3C(C)=CC2(C)C)OCO4)cc1", "GFP response, % of DMSO", "%", 93.4),
    ("CC(C)CCc1noc(CN2CCC(CCN3CCCC3=O)CC2)n1", "GFP response, % of DMSO", "%", 102),
    ("Cc1cccc(C(=O)c2cccc(C)c2)c1", "GFP response, % of DMSO", "%", 105),
]

Given CC(NC(=O)c1cccnc1)C(=O)O (stereo not given) , state its recorded GFP response, % of DMSO.
90.5

Given CC(=O)[C@H]1[C@H](C#N)C[C@H]2[C@@H]3CC=C4C[C@@H](O)CC[C@]4(C)[C@H]3CC[C@@]21C , state its recorded GFP response, % of DMSO.
88
